Test: CD (circular dichroism) spectroscopy of α-helix structure
Assay type: physicochemical
Conditions: Table 11; peptide complexes of Examples 37-97
Procedure: To evaluate the structures of a linear plasmid DNA and peptides, CD spectra were analyzed using a Chirascan CD spectrometer (Applied Photophysics, UK). […] The final concentration of the linear plasmid DNA was 30 ng/μL. […] MRE (mean residue ellipticity) was calculated based on the number of amino acid residues. […] The CD spectra were analyzed using a Chirascan CD spectrometer (Applied Photophysics, UK). […] MRE (mean residue ellipticity) was calculated based on the number of amino acid residues.
Non-standard residues stand in square brackets, D forms with d. No end group written: not given here. Aib = CC(C)(N)C(=O)O
Measured θ222 nm/θ208 nm ratio of individual entries

// worked examples, θ222 nm/θ208 nm ratio included
1. RRAUAUAUAUAUAUAUAUAUAUA(PEG8)2 [Example 61] = 1.13
2. RGDRGDAUAUAUAUAUAUAUAUAUAUAR [Example 70] = 1.14
3. RGDRGDAUAUAUAUAUAUAUAUAUAUARR [Example 73] = 1.1
4. EAUAUAUAUAUAUAUAUAUAUA(PEG8)2 [Example 90] = 1.21
5. Example 37: peptide complex (Wαm-RGD), SEQ ID NO 37 (A[Aib]A[Aib]A[Aib]A[Aib]AGRGDRGDG) = 0.28

# θ222 nm/θ208 nm ratio of RGDRGDRGDAUAUAUAUAUAUAUAUAUAUARR [Example 74] = 1.11
